Target: Peroxisome proliferator-activated receptor alpha (Homo sapiens)
Sequence (Q07869 whole entry): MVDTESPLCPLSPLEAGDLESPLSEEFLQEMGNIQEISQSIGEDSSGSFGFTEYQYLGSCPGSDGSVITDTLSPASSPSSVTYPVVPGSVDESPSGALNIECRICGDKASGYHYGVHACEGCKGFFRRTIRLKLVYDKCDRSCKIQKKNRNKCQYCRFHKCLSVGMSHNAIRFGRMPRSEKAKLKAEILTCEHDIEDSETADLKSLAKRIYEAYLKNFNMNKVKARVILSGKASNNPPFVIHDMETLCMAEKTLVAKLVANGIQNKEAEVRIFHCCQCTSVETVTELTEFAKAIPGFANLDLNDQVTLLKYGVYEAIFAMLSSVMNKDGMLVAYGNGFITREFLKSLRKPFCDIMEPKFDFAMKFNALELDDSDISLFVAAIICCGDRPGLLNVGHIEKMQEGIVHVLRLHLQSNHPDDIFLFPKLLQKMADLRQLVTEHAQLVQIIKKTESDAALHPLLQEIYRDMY
Test: Transactivation of human PPARalpha expressed in african green monkey CV1 cells by luciferase reporter gene assay
value kind: EC50

compound	experimental value
CC(C)=CCC/C(C)=C/Cc1c(O)cc(/C=C/c2ccoc2)cc1O	6 µM
CC(C)=CCC/C(C)=C/Cc1c(O)cc(/C=C/c2ccsc2)cc1O	14 µM
COc1ccc(/C=C/c2cc(O)c(C/C=C(\C)CCC=C(C)C)c(O)c2)cc1	19 µM
CC(C)=CCC/C(C)=C/Cc1c(O)cc(/C=C/c2ccc(F)cc2)cc1O	6 µM
CC(C)=CCC/C(C)=C/Cc1c(O)cc(/C=C/c2cccc(C(F)(F)F)c2)cc1O	4 µM
